- target or test system: CK1δ/ε
- experimental details: CK1δ/ε kinase assay (CKS peptide)
- details: read-out: IC50 CK1δ/ε; 15 µM ATP; Table 1
pIC50: −log10 of the molar value.
readout label: pIC50

INSERT INTO measurements (structure, target_or_test_system, result) VALUES
  ('CC(C)n1cnc2c(Nc3ccccn3)nc(Nc3ncccn3)nc21', 'CK1δ/ε', '< 5.00'),
  ('CC(C)n1cnc2c(Nc3cccnc3)nc(Nc3ncccn3)nc21', 'CK1δ/ε', '< 5.00'),
  ('CC[C@@H](CO)Nc1nc(Nc2ccc(-c3ccccn3)cc2)c2ncn(C(C)C)c2n1', 'CK1δ/ε', 6.30);

----------
- target or test system: CDK5/p25 (Homo sapiens)
- Construct: made in house
- Sequence (Q00535 whole entry): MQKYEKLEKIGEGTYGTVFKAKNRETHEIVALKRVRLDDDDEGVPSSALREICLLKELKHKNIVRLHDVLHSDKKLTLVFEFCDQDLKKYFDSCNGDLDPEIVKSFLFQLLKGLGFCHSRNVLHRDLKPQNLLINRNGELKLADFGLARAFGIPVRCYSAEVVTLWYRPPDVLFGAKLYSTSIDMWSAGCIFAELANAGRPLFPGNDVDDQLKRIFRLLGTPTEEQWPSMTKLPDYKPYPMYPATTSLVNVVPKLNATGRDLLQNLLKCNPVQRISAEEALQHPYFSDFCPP
- Sequence (Q15078 99-307 partner limits assumed): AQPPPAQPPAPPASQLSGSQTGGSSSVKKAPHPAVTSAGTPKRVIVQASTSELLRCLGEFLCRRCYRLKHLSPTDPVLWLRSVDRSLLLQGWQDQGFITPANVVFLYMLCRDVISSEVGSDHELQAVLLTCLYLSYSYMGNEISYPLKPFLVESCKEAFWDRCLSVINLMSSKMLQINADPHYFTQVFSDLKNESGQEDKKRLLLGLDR
- experimental details: CDK5/p25 kinase assay ([γ-33P] ATP, histone H1)
- Assay type: biochemical
- details: CDK5/p25, 15 µM ATP; Table 1; read-out: IC50 CDK5
IC50 values by entry
readout label: IC50 (nM)

INSERT INTO results (structure, comparison_symbol, measured_number) VALUES
  ('CC[C@@H](CO)Nc1nc(Nc2cccc(-c3cccnc3)c2)c2ncn(C(C)C)c2n1', '=', 100),
  ('CC[C@@H](CO)Nc1nc(Nc2cccc(-c3ccccn3)c2)c2ncn(C(C)C)c2n1', '=', 400),
  ('CC[C@H](CO)Nc1nc(Nc2ccc(-c3cccnc3)nc2)c2ncn(C(C)C)c2n1', '=', 30),
  ('CC(C)n1cnc2c(Nc3ccccn3)nc(Nc3ncccn3)nc21', '>', 10000);
